Reported combination Emax values for the following compounds.
Test system: RS4-11 (B-Lymphoblastic Leukemia)
TEST NAME: combination Emax (second highest fraction inhibited in the dose matrix, 72 h); higher = more inhibition; extreme values may be limits of the assay
PROPERTY MEASURED: combination Emax

• C[C@@H]1COCCN1c1cc(C2([S@](C)(=N)=O)CC2)nc(-c2ccnc3[nH]ccc23)n1 [AZD6738] + O=C(c1cc(Cc2n[nH]c(=O)c3ccccc23)ccc1F)N1CCN(C(=O)C2CC2)CC1 [Olaparib] (first compound max 10 µM, 7x7, partner max 10 µM) = 0.979
• CN(CCO)CC[C@H](CSc1ccccc1)Nc1ccc(S(=O)(=O)NC(=O)c2ccc(N3CCC([C@@H](O)c4ccccc4-c4ccc(Cl)cc4)CC3)cc2)cc1S(=O)(=O)C(F)(F)F [AZD4320] + Cn1cnc2c(F)c(Nc3ccc(Br)cc3Cl)c(C(=O)NOCCO)cc21 [Selumetinib] (first compound max 1 µM, 7x7, partner max 3 µM) = 1
